system: U251 CNS; test: NCI tumour cell line growth inhibition, 48 h
Give measured TGI for each item. Keep answers brief.
Field format: number, assumed µM, no unit text.

Asked: Recall the reported TGI of CC(C)(C)C1CCC(=O)/C(=C/CC2CC(=O)N(c3ccccc3)C(=O)C2)C1 (centres undefined) on U251 CNS and write it down.
Given back: 31

Asked: # return TGI for COc1cccc2c1C(=N)c1c(O)c3c(c(O)c1C2=O)C[C@@](O)(C(C)=O)C[C@@H]3O[C@H]1C[C@H](N)[C@H](O)[C@H](C)O1 , test system: U251 CNS
Given back: 2.14

Asked: Under U251 CNS, report TGI for COc1cc2c(cc1O)c(O)cc1c3cc(OC)c(OC)cc3c[n+](C)c21
Given back: 4.57

Asked: Give measured TGI for Cc1ccc2c(ccc(/C=C/c3ccc(O)c4ncccc34)[n+]2C)c1 (U251 CNS).
Given back: 26.8

Asked: Report measured TGI on U251 CNS; entry: COc1ccc2c(c1)C(=O)CCc1cc(OC)c(OC)c(OC)c1-2
Given back: 0.18
